# test.target: Pyruvate kinase PKM (Homo sapiens)
# Sequence (P14618 whole entry): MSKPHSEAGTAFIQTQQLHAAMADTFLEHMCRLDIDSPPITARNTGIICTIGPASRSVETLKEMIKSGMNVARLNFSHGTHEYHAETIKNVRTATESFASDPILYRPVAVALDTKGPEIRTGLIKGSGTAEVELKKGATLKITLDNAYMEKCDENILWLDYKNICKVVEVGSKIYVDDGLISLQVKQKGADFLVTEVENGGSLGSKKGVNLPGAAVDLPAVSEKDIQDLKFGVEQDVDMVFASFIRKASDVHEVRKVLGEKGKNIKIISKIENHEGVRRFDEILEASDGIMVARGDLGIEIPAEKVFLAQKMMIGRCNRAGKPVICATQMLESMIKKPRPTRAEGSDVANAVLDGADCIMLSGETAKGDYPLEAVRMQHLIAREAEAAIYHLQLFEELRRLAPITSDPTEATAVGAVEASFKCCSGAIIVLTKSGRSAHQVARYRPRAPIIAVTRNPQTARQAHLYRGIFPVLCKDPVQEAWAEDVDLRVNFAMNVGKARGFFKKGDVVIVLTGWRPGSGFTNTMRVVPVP
# assay: Activation of PKM2 (unknown origin) Leu353, Tyr390, Phe26 residues incubated for 30 mins by ATP colorimetric/fluorometric assay
measured.quantity: EC50

structure_as_smiles=Cc1ccc(C)c(S(=O)(=O)Nc2ccc(C(=O)N3CCN(Cc4ccccc4)CC3)cc2)c1 result="4.92 µM"

---

# Ki per entry for Pyruvate kinase PKM (Homo sapiens, UniProt P14618)
measured.quantity: Ki (µM)

compound="O=c1cc(-c2ccccc2)oc2cccc(O)c12 [5-HYDROXYFLAVONE]" quantitative_result=3.53
compound="O=c1cc(-c2ccccc2)oc2cc(O)ccc12 [7-HYDROXYFLAVONE]" quantitative_result=3.53
compound="O=c1cc(-c2ccccc2)oc2ccc(O)cc12 [6-HYDROXYFLAVONE]" quantitative_result=3.53
